Tested on: NCI/ADR-RES ovarian
METHOD NOTES: NCI-60 one-dose screen, 48 h (100 = growth as untreated, 0 = no growth, -100 = all killed)
TEST CONTEXT: 10 µM unless noted
This is part of a sample that, as a whole, favours compounds with a hit. Of some 83,000 tested, about 20% had one in any assay.
For each record, write down the corresponding growth.
# unit: % | format: bare number

Task: Give growth for the following compound: "CCOc1nc(-c2ccccc2)cc2c(O)c(C(=O)O)[nH]c(=O)c12"
Result: 60.9

Task: Give growth for the following compound: "CC(C)c1c(C(=O)c2ccccc2)c(-c2ccccc2)c(-c2ccc(F)cc2)n1CC[C@@H](O)C[C@@H](O)CC(=O)O"
Result: 48.9

Task: Give growth for the following compound: "COc1ccccc1Nc1nc(-c2cc3cccc(C(F)(F)F)c3oc2=O)cs1"
Result: 15

Task: Give growth for the following compound: "CN(C)[C@@H]1C(=O)C(C(=O)NCc2nc3[nH]cnc(=S)c3[nH]2)=C(O)[C@@]2(O)C(=O)C3=C(O)c4c(O)cccc4[C@@](C)(O)[C@H]3C[C@@H]12"
Result: 30.5

Task: Give growth for the following compound: "CC(=O)O[C@H]1CC[C@]2(C)[C@H]3CC=C4[C@@H]5CC(C)(C)CC[C@]5(C(=O)NCCNCCN)CC[C@@]4(C)[C@]3(C)CC[C@H]2C1(C)C"
Result: -86

Task: Give growth for the following compound: "O=C1c2cc3c(cc2-c2c1c1ccc(F)cc1c(=O)n2C[C@H](O)[C@H](O)[C@H](O)CO)OCO3"
Result: -23.8

Task: Give growth for the following compound: "CCc1nnc(CNc2ccc(Cl)cc2)o1"
Result: 97.8

Task: Give growth for the following compound: "COc1cc(/C=C/C(=O)c2cccnc2Nc2ccc(F)cc2)cc(OC)c1OC"
Result: 8.54

====

Tested on: UO-31 renal
METHOD NOTES: NCI-60 one-dose screen, 48 h
TEST CONTEXT: 10 µM unless noted
The panel holds about 83,000 compounds, 20% with a hit somewhere; the sample as a whole holds those more often. Active and inactive are the calls of the source. The calls were made as follows: active = growth percent below 10; inactive = the rest.
API: response.call in class 1 for active, class 0 for inactive

Task: // param item: C=CCSSc1ncnc2c1ncn2C1OC(CO)C(O)C1O (centres undefined) ; yields the recorded call
Result: class 0

Task: // param item: "C#CCOc1ccc2ncnc(Nc3cccc(CNC(=O)CCl)c3)c2c1" ; yields the recorded call
Result: class 0

Task: // param item: "CCCCC[C@H]1C/C=C2/C(=O)C=C[C@@H]2C/C=C\CCCC(=O)O1" ; yields the recorded call
Result: class 1

Task: // param item: O=C1Nc2ccc(Br)cc2C12Oc1ccccc1C1CC(c3ccc(F)cc3)=NN12 (centres undefined) ; yields the recorded call
Result: class 0

Task: // param item: "COc1ccc(Nc2cc(C)nc(N3CCN(c4ccnc5cc(Cl)ccc45)CC3)n2)cc1" ; yields the recorded call
Result: class 1

Task: // param item: "CC(=O)Nc1ccc(-n2c(O)c(/C=N/NC(=O)Cc3ccccc3Nc3c(Cl)cccc3Cl)sc2=S)cc1" ; yields the recorded call
Result: class 0

Task: // param item: "COc1cc(/C=C/C(=O)c2c(C)oc3nc[nH]c(=O)c23)cc(OC)c1OC" ; yields the recorded call
Result: class 0

Task: // param item: CON1C(=O)CC[C@]2(C)[C@H]3CC[C@@H]4C([C@@]5(C)CCC(=O)O5)CC[C@@]4(C)[C@]3(C)CC[C@H]2C1(C)C (some centres undefined) ; yields the recorded call
Result: class 0

Task: // param item: "COc1cc2c(cc1-c1c(C)noc1C)ncc1nc(C3CCOCC3)n([C@@H](C)COC(F)F)c12" ; yields the recorded call
Result: class 1

Task: // param item: "COc1cc(/C=C/C(=O)c2cccnc2Nc2ccc(F)cc2)cc(OC)c1OC" ; yields the recorded call
Result: class 0

Task: // param item: "O=C1/C(=C/c2ccc(Cl)cc2)SC(=S)N1CCc1ccc(O)cc1" ; yields the recorded call
Result: class 0

Task: // param item: "O=C(COc1cccc(/C=C2\COc3ccc(Cl)cc3C2=O)c1)c1ccc(Cl)cc1" ; yields the recorded call
Result: class 0

Task: // param item: "Cn1c(NCCc2ccc(O)c(O)c2)nc2c1c(=O)n(Cc1ccc(Cl)c(Cl)c1)c(=O)n2C" ; yields the recorded call
Result: class 0

Task: // param item: "COc1ccc(CN2c3ccccc3Sc3ccccc32)cc1O" ; yields the recorded call
Result: class 0

Task: // param item: "O=C1NC(=S)NC(=O)C1CC(=O)n1c(-c2ccccc2)nc2ccccc21" ; yields the recorded call
Result: class 0

Task: // param item: "CSc1nc2c(c(=O)[nH]1)C1(C(=O)Nc3ccccc31)c1c(nc(SC)[nH]c1=O)N2" ; yields the recorded call
Result: class 0

Task: // param item: "COc1ccc(NC2=C(Sc3nc(C)cc(C)n3)C(=O)N(Cc3ccccc3)C2=O)cc1Cl" ; yields the recorded call
Result: class 0

Task: // param item: "O=C1C=CC(=O)N1c1ccc2c(c1)Cc1cc(F)ccc1-2" ; yields the recorded call
Result: class 0

Task: // param item: "Clc1ccc2nc3nc4ccc[nH]c4cc3c2c1" ; yields the recorded call
Result: class 0

Task: // param item: OCC(O)c1nc2ccc3[nH]ncc3c2c2c1CCCC2 (centres undefined) ; yields the recorded call
Result: class 1

Task: // param item: "COc1ccc(-c2cc(=O)c3c(OC)c4ccoc4cc3o2)cc1" ; yields the recorded call
Result: class 0

Task: // param item: Cc1ccc2c(C(C[N+](=O)[O-])c3ccccc3)c(-c3ccccc3)[nH]c2c1 (centres undefined) ; yields the recorded call
Result: class 0

Task: // param item: COc1ccc(C2CC(c3ccc4ccccc4c3)=NN2/C=C2\SC(=S)N(NC(=O)Cc3ccccc3Nc3c(Cl)cccc3Cl)C2=O)cc1 (centres undefined) ; yields the recorded call
Result: class 0

Task: // param item: "O=C(O)c1ccc(NC(=O)c2ccc(-c3cccc([N+](=O)[O-])c3)o2)cc1" ; yields the recorded call
Result: class 0

Task: // param item: "Fc1ccc2[nH]cc(SSc3c[nH]c4ccc(F)cc34)c2c1" ; yields the recorded call
Result: class 0

Task: // param item: "Oc1cccc2ccc(N/N=C/c3cc(CN4CCOCC4)c(O)c4ncccc34)nc12" ; yields the recorded call
Result: class 1

Task: // param item: "COc1cc(-c2ccc3c(c2)NC(=O)/C3=C\c2ccc[nH]2)ccc1O" ; yields the recorded call
Result: class 0

Task: // param item: "C=CC(=O)Nc1cccc(-c2nc(SC)nc(NCCc3ccc(OC)c(OC)c3)c2C#N)c1" ; yields the recorded call
Result: class 0

Task: // param item: "COc1ccc(-c2nc3ccc(-c4nc5ccc(N6CCN(c7ccncc7)CC6)cc5[nH]4)cc3[nH]2)cc1OC" ; yields the recorded call
Result: class 0

Task: // param item: "CCOC(=O)c1c(C)oc2ncnc(N3CCN(C(=S)Nc4ccccc4)CC3)c12" ; yields the recorded call
Result: class 0

Task: // param item: "CN1CCN(CCCOc2cccc3nc(Nc4cc(Cl)cc(Cl)c4)ccc23)CC1" ; yields the recorded call
Result: class 1

Task: // param item: "COc1ccc(-c2nnc(SCC(=O)c3ccc(Cl)cc3)o2)cc1" ; yields the recorded call
Result: class 0

Task: // param item: "Cc1cc(C)nc(SC2=C(Nc3cccc(Cl)c3)C(=O)N(Cc3ccccc3)C2=O)n1" ; yields the recorded call
Result: class 0

Task: // param item: COc1ccc(C2CC(c3ccc(Cl)cc3)=NN2/C=C2\SC(=S)N(NC(=O)Cc3ccccc3Nc3c(Cl)cccc3Cl)C2=O)cc1 (centres undefined) ; yields the recorded call
Result: class 1

Task: // param item: "NCCNc1nc(Nc2ccc(-c3nc4ccccc4[nH]3)cc2)c2cn[nH]c2n1" ; yields the recorded call
Result: class 0

Task: // param item: "COc1cc2c(cc1O)CC[C@@H]1[C@@H]2CC[C@]2(C)[C@@H](OCCCN(C)C)CC[C@@H]12" ; yields the recorded call
Result: class 1

Task: // param item: "Cc1[nH]c(-c2cc(N)ccc2Cl)c2c1C(=O)CCCC2" ; yields the recorded call
Result: class 0

Task: // param item: "O=C1/C(=C/c2ccccc2O)N=C2SCCCN12" ; yields the recorded call
Result: class 0

Task: // param item: "O=C(COc1ccc(-c2nc3cc(Cl)c(Cl)cc3[nH]2)cc1)N=Nc1c(O)[nH]c2ccccc12" ; yields the recorded call
Result: class 0

====

Test system: OVCAR-3 ovarian
METHOD NOTES: NCI-60 one-dose screen, 48 h (100 = growth as untreated, 0 = no growth, -100 = all killed)
TEST CONTEXT: 10 µM unless noted
Compounds without any hit were thinned out: in the full panel of roughly 83,000, 20% have a hit.
I would appreciate it if you labelled entries Condition met when growth is 20% or higher, otherwise Condition not met.

Task: Does the reported growth for "O=C(Cc1ccc(/C=C/C(=O)c2ncc[nH]2)cc1)Nc1ccccc1" fall at or above the 20% mark?
Result: Condition not met

Task: Does the reported growth for "O=c1cc(/C(=C2/C=CC=N2)c2ccc[nH]2)c2cc(Cl)ccc2o1" fall at or above the 20% mark?
Result: Condition not met

Task: Does the reported growth for "COc1ccc(S(=O)(=O)N2CC3(COC3)C2)cc1NC(=O)c1[nH]c(C)c2c1CCCCC2=O" fall at or above the 20% mark?
Result: Condition met

Task: Does the reported growth for "CCOc1ccc(-n2nc(C(=O)Nc3cc(OC)c(OC)c(OC)c3)nc2-c2cc(OC)c(OC)c(OC)c2)cc1" fall at or above the 20% mark?
Result: Condition met

Task: Does the reported growth for "O=c1ccccc(-c2ccc(Br)cc2)c1O" fall at or above the 20% mark?
Result: Condition met
